# Test system: SF-268 CNS
# experiment: NCI-60 one-dose screen, 48 h (100 = growth as untreated, 0 = no growth, -100 = all killed)
# testContext: 10 µM unless noted
Compounds without any hit were thinned out: in the full panel of roughly 83,000, 20% have a hit.
Category | rule: reported growth within range, see lower segment = under 30%, middle segment = from 30% up to 70%, upper segment = 70% and over

>  <compound>
COc1ccc(Nc2nccc(N3CCN(c4c5ccc(Cl)cc5nc5ccc(OC)cc45)CC3)n2)cc1

>  <studySystem>
SF-268 CNS

>  <class>
middle segment

$$$$
>  <compound>
O=[N+]([O-])c1ccc(N/N=C/c2c(O)ccc3ccccc23)nc1

>  <studySystem>
SF-268 CNS

>  <class>
middle segment

$$$$
>  <compound>
CC/C(=C\c1ccc(N(C)C)cc1)c1nc2ccccc2c(=O)[nH]1

>  <studySystem>
SF-268 CNS

>  <class>
upper segment

$$$$
>  <compound>
CC/C=C\C=C/C(=O)N/C=C/CC1Cc2cccc(O)c2C(=O)O1 (configuration not stated)

>  <studySystem>
SF-268 CNS

>  <class>
upper segment

$$$$
>  <compound>
Cc1ccccc1NC(=O)c1cc2ccccc2cc1O

>  <studySystem>
SF-268 CNS

>  <class>
lower segment

$$$$
>  <compound>
CCCCCCCCCCC[C@@H](C[C@H]1OC(=O)[C@H]1CCCCCC)OC(=O)[C@@H](CC(C)C)NC=O

>  <studySystem>
SF-268 CNS

>  <class>
middle segment

$$$$
>  <compound>
O=C(Nc1ccc(OCc2nnc(-c3ccccc3)o2)c(F)c1)Nc1ccc(Cl)c(C(F)(F)F)c1

>  <studySystem>
SF-268 CNS

>  <class>
middle segment

$$$$
>  <compound>
CN(C)CCCN1c2nc3ccccc3cc2Sc2cc3ccccc3nc21

>  <studySystem>
SF-268 CNS

>  <class>
lower segment

$$$$
>  <compound>
O=C(Nc1ccc(Cl)cc1)Nc1ccc(Oc2nncc3ccccc23)cc1

>  <studySystem>
SF-268 CNS

>  <class>
lower segment

$$$$

###

# System: UACC-257 melanoma
# experiment: NCI-60 one-dose screen, 48 h
# testContext: 10 µM unless noted
Compounds without any hit were thinned out: in the full panel of roughly 83,000, 20% have a hit. Active and inactive are the calls of the source. How the source made its calls: active means growth percent below 10; inactive means the rest.
Outcomes: active, inactive

>  <itemSmiles>
CCN(CC)CCCCNc1c2ccccc2[n+](C)c2c1[nH]c1ccccc12

>  <class>
active

$$$$
>  <itemSmiles>
O=C(Nc1cccc(C(F)(F)F)c1)Nc1ccc(OCc2nnc(-c3ccc(Cl)cc3)o2)c(F)c1

>  <class>
inactive

$$$$
>  <itemSmiles>
COc1ccc(-c2cc(Cc3cccs3)c(=O)n(Cn3cncn3)n2)cc1

>  <class>
inactive

$$$$

###

# Test system: IGROV1 ovarian
# experiment: NCI-60 one-dose screen, 48 h (100 = growth as untreated, 0 = no growth, -100 = all killed)
# testContext: 10 µM unless noted
Compounds without any hit were thinned out: in the full panel of roughly 83,000, 20% have a hit.
readoutKind: growth (%)

>  <molecule>
C[N+]1(CCc2ccccc2)CCC(CCC2CC[N+](C)(CCc3ccccc3)CC2)CC1 (stereo not given)

>  <unitsText>
%

>  <recordedValue>
105

$$$$
>  <molecule>
CCN1CCN(c2cc(-c3cn[nH]c3-c3cc(C)cc(OC)c3)nc(-c3cccnc3)n2)CC1

>  <unitsText>
%

>  <recordedValue>
84.4

$$$$
>  <molecule>
Cn1cc(-c2csc(-c3cn(C)c4ncccc34)n2)c2cccnc21

>  <unitsText>
%

>  <recordedValue>
111

$$$$
>  <molecule>
COC(=O)[C@]12CC[C@@H](C)[C@H](C)[C@@H]1C1=CC[C@@H]3[C@@]4(C)C=C(O)C(=O)[C@@]5(C)COC(=C54)C[C@@]3(C)[C@]1(C)CC2

>  <unitsText>
%

>  <recordedValue>
-23.5

$$$$
>  <molecule>
COC(=O)[C@]12CC[C@@H](C)[C@H](C)[C@@H]1C1=CC[C@@H]3[C@@]4(C)C[C@@H](OC(=O)c5ccco5)[C@H](O)[C@@](C)(CO)[C@@H]4[C@H](O)C[C@@]3(C)[C@]1(C)CC2

>  <unitsText>
%

>  <recordedValue>
-65

$$$$
>  <molecule>
CCn1c2ccccc2c2ccc(C(C)=O)cc21

>  <unitsText>
%

>  <recordedValue>
111

$$$$
>  <molecule>
CCCCCCCCCCCCCCCCN=C(CC(=O)O)C(=O)O

>  <unitsText>
%

>  <recordedValue>
88.6

$$$$
>  <molecule>
CO[C@H]1/C=C/O[C@@]2(C)Oc3c(C)c(O)c4c(O)c(c(/C=N/N5CCN(C)CC5)c(O)c4c3C2=O)NC(=O)/C(C)=C\C=C\C(C)[C@H](O)[C@@H](C)[C@@H](O)[C@@H](C)[C@@H](OC(C)=O)[C@@H]1C (stereo not given in full)

>  <unitsText>
%

>  <recordedValue>
105

$$$$
>  <molecule>
CC1=CSC2=NCCN12

>  <unitsText>
%

>  <recordedValue>
108

$$$$
>  <molecule>
Nc1nc(SCC2(CCl)COC2)c2[nH]cnc2n1

>  <unitsText>
%

>  <recordedValue>
101

$$$$

###

# Test system: CCRF-CEM leukemia
# experiment: NCI-60 one-dose screen, 48 h
# testContext: 10 µM unless noted
About 83,000 compounds went through this panel and 20% of them were active in at least one assay; those are over-represented in the sample as a whole. Activity calls are given as the source filed them. The calls were made as follows: active = growth percent below 10; inactive = the rest.
Outcomes: t (active), f (inactive)

>  <compound>
S=C(Nc1ccc(C2=NCCN2)cc1)Nc1ccc(C2=NCCN2)cc1

>  <class>
f

$$$$
>  <compound>
COc1ccc(-c2nn(-c3cccc(Cl)c3)cc2C2CC(c3ccccc3)=NN2C(C)=O)cc1 (centres undefined)

>  <class>
f

$$$$
>  <compound>
CCC1=C(c2ccc(OC)cc2)C(C)Oc2cc(OC(C)=O)ccc21 (centres undefined)

>  <class>
f

$$$$
>  <compound>
NS(=O)(=O)c1ccc(NC2=C(Cl)C(=O)c3ccccc3C2=O)cc1

>  <class>
f

$$$$
>  <compound>
CCCCCCCCCCCCCCCCN=C(CC(=O)O)C(=O)O

>  <class>
f

$$$$
>  <compound>
COc1ccc(/C=C2\COc3ccc(O)c(O)c3C2=O)cc1OC

>  <class>
t

$$$$
>  <compound>
CCCCCCOc1ccc(/C=N/NC(N)=S)cc1

>  <class>
t

$$$$
>  <compound>
c1ccc(Nc2nnc(-c3cc(-c4cccnc4)n(-c4ccccc4)n3)s2)cc1

>  <class>
f

$$$$
>  <compound>
Cc1cc(C(C)(C)C)cc(C)c1CC1=NCCN1

>  <class>
f

$$$$
>  <compound>
CCCCc1nc(Cl)c(CO)n1Cc1ccc(-c2ccccc2-c2nn[nH]n2)cc1

>  <class>
f

$$$$
>  <compound>
OCCOc1c(Cl)cc(Cl)cc1Cl

>  <class>
f

$$$$
>  <compound>
CC(=O)c1nc2ccccc2n1CCn1cc(CC(N)C(=O)O)c2ccccc21 (centres undefined)

>  <class>
f

$$$$
>  <compound>
COc1cc(C2CC(=O)Nc3c2cc(Br)c2ccccc32)cc(Br)c1OC (centres undefined)

>  <class>
f

$$$$
>  <compound>
C=CC1=C(C(=O)O)N2C(=O)[C@@H](NC(=O)/C(=N\O)c3csc(N)n3)[C@H]2SC1 (stereo in doubt)

>  <class>
f

$$$$

###

# System: COLO 205 colon
# experiment: NCI-60 one-dose screen, 48 h (100 = growth as untreated, 0 = no growth, -100 = all killed)
# testContext: 10 µM unless noted
About 83,000 compounds went through this panel and 20% of them were active in at least one assay; those are over-represented in the sample as a whole.
Record y whenever growth is at 90% or higher; record n when lower.

>  <molecule>
COc1cc(C2=NN(C(C)=O)C(c3ccc(OC(C)=O)cc3OC(C)=O)O2)c(OC(C)=O)c2ccccc12 (centres undefined)

>  <class>
n

$$$$
>  <molecule>
COc1cccc(CCC2C(=O)CCCC2=O)c1

>  <class>
y

$$$$
>  <molecule>
Oc1[nH]c2ccccc2c1/C=c1/ccc2c(c1)N=C(c1cc(F)cc(F)c1)N=2

>  <class>
y

$$$$
>  <molecule>
N=C(N)/N=C(\CCc1nc2ccccc2[nH]1)c1nc2ccccc2[nH]1

>  <class>
y

$$$$
>  <molecule>
S=C1SCN(Cc2ccccc2)CN1Cc1ccco1

>  <class>
n

$$$$
>  <molecule>
C[n+]1c2ccccc2c(Nc2ccc(N3CCCCC3)cc2)c2[nH]c3ccccc3c21

>  <class>
n

$$$$
>  <molecule>
O[C@@H]1Cc2ccc3ccccc3c2N[C@H](c2ccoc2)C1

>  <class>
y

$$$$
>  <molecule>
CC(=O)NCCSC(=O)C(=O)SCCNC(C)=O

>  <class>
y

$$$$
>  <molecule>
Nc1nc2ncc(CCNc3ccc(C(=O)NC(CCC(=O)O)C(=O)O)cc3)nc2c(=O)[nH]1 (centres undefined)

>  <class>
y

$$$$
>  <molecule>
C=C(C[C@@](O)(C(=O)Oc1ccccc1)C(=O)C1CCCCC1)c1ccccc1

>  <class>
y

$$$$
>  <molecule>
O=C(OCCBr)c1ccc(Cl)c([N+](=O)[O-])c1

>  <class>
y

$$$$
>  <molecule>
O=C1NCN(CCO)CN1

>  <class>
y

$$$$
>  <molecule>
CN1C(=O)/C(=C/c2nc(-c3cccc(F)c3)n3ccccc23)c2ccccc21

>  <class>
y

$$$$
>  <molecule>
C[C@]12CC[C@@H]3c4ccc(O)cc4CC[C@H]3[C@@H]1CC[C@@H]2NS(=O)(=O)c1cccc(Br)c1

>  <class>
n

$$$$
>  <molecule>
CCN1C[C@@H](C)n2c(c(O)c3c(=O)n(Cc4ccc(F)c(Cl)c4)nc(C(=O)NC)c32)C1=O

>  <class>
y

$$$$
>  <molecule>
Nc1c2ccccc2nc2ccccc12 (tested in a mixture with another compound)

>  <class>
n

$$$$
>  <molecule>
C[N+]1(CCc2ccccc2)CCC(CCC2CC[N+](C)(CCc3ccccc3)CC2)CC1 (centres undefined)

>  <class>
y

$$$$
>  <molecule>
CC[N+](CC)(CCOCCOCC[N+](CC)(CC)Cc1ccc([N+](=O)[O-])cc1)Cc1ccc([N+](=O)[O-])cc1

>  <class>
y

$$$$
>  <molecule>
CCOC(=O)C1=C(C)N2C(=NC3=C(CCC/C3=C\c3ccc(Cl)cc3)C2c2ccc(Cl)cc2)S1 (centres undefined)

>  <class>
n

$$$$
>  <molecule>
O=C1/C(=C/c2ccc([N+](=O)[O-])o2)Oc2ccc(Br)cc21

>  <class>
n

$$$$
>  <molecule>
NC(=O)c1ccccc1NC(=O)c1ccccc1Cl

>  <class>
y

$$$$
>  <molecule>
O=C(Nc1ccc(Oc2ccc(NC(=O)Nc3ccc([N+](=O)[O-])cc3)cc2)cc1)Nc1ccc([N+](=O)[O-])cc1

>  <class>
n

$$$$
